PROCEDURE_DETAILS: refractive index (Na D-line) (dimensionless)
CONDITION_SUMMARY: 298.15 K; 101.33 kPa; Liquid; Standard Abbe refractometry
READOUT_TYPE: refractive index
Response field accepts a number only; no unit should be typed.

## Input Please report the recorded refractive index for CCCCO .
## Output 1.397

## Input Another compound: CCC#N
## Output 1.3633

## Input Another compound: CC(C)O
## Output 1.3748

## Input Another compound: CCCCCO
## Output 1.4078

## Input Another compound: CCO
## Output 1.3593

## Input Another compound: CO
## Output 1.3265

## Input Another compound: CCCO
## Output 1.3834
